molecular target: human JAK1 (a.a. 837-1142) (Homo sapiens)
Sequence (P23458 849-1154): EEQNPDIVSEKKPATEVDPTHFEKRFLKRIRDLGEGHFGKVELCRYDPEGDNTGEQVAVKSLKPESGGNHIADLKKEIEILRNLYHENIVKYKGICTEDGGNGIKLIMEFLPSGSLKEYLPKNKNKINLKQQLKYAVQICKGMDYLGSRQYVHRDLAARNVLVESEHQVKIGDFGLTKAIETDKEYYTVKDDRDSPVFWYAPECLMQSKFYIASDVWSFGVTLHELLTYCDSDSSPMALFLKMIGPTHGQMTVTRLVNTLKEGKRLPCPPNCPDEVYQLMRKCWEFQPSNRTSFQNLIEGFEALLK
MEASURED PARAMETER: IC50

(Q) What IC50 value was documented for this molecule, N#CCC1(n2cc(-c3ncnc4[nH]ccc34)cn2)CN(C2CCN(C(=O)c3ccnc(C(F)(F)F)c3F)CC2)C1 ?
(A) ≤ 5 nM
